Every entry's value here was drawn from PubChem BioAssay (NCI).

System: MDA-MB-231 breast
Assay: NCI-60 one-dose screen, 48 h (100 = growth as untreated, 0 = no growth, -100 = all killed)
Settings: 10 µM unless noted
The panel holds about 83,000 compounds, 20% with a hit somewhere; the sample as a whole holds those more often.
Provide the reported growth of each item.
Return type: number; implicit unit %.

Data request: Can you share its growth? I mean this molecule: COc1ccc(/C=C2/C(=O)Nc3cc(Cl)c(-c4csc(N)n4)cc32)cc1
Data returned: 27.3

Data request: Follow-up item: CC(C(C(=O)N1CCCCC1)N1CCCCC1)N1CCCCC1 (stereo not drawn)
Data returned: 112

Data request: Same read-out for O=C1C(SCCO)=C(SCCO)C(=O)N1c1ccc(-c2ccccc2)cc1 ?
Data returned: 95

Data request: And for c1ccc2nc(Cn3cc[n+](Cc4ccc5ccccc5n4)c3)ccc2c1 ?
Data returned: 77.9

Data request: Record: CNC(=O)NN
Data returned: 108

Data request: Try COc1ccc2c(c1)O/C(=C/c1ccc(OCC(=O)Nc3ccc(S(N)(=O)=O)cc3)cc1)C2=O next.
Data returned: 94.7

Data request: Also need CC(=O)CC/C=C(\C)[C@H](O)[C@H](C)C(=O)O[C@H]1C[C@H](C)C=C2C=C[C@@]3(C)O[C@@H](O)CC(=O)[C@]3(C)[C@H]21 , thanks.
Data returned: -39.2

Data request: Another: Cc1cc[n+](CCCC[n+]2ccc(C)cc2)cc1
Data returned: 105

Data request: Moving on to COc1ccc(/C(=C/c2cc(OC)c(OC)c(OC)c2)[N+](=O)[O-])cc1
Data returned: 9.98

Data request: Another molecule: COc1ccc(Cl)cc1NC(=O)c1cc2c([nH]1)-c1nc(N)sc1CCC2
Data returned: 105

Data request: Here is the next molecule: COc1ccc(Cn2cc(COc3ccc4c5ccnc(C)c5n(CCCc5ccccc5)c4c3)nn2)cc1
Data returned: 65.6

Data request: Request: Cc1ccc(=O)n(-c2ccc(Br)cc2F)c1
Data returned: 103

Data request: // next record C[C@]12O[C@H]1[C@H](O)c1c(cc(O)c3c1C(=O)c1cccc(O)c1-3)C2=O
Data returned: 94

Data request: Field entry: O=C(Nc1ccc(-n2cc(-c3ccncc3)c(-c3ccc(O)c(Cl)c3)n2)cc1)c1ccc(Cl)c(C(F)(F)F)c1
Data returned: -29.1

Data request: Then this molecule: COc1cc([C@@H]2c3cc4c(cc3C(OC3O[C@@H]5COC(C)O[C@H]5[C@H](O)[C@H]3O)C3COC(=O)[C@@H]32)OCO4)cc(OC)c1O (stereo partly drawn)
Data returned: 78.3

Data request: Further, for COc1ccc(Cl)cc1NC(=O)c1cc2c([nH]1)-c1nc(NC(=O)C(C)C)sc1CC2 ?
Data returned: 113

Data request: Another molecule: CCCCNc1cc(C(=O)O)cc(S(N)(=O)=O)c1Oc1ccccc1
Data returned: 122

Data request: Try this molecule next: CN(C)CCCOc1c(Br)cc(/C=C/C(=O)N(C)CCc2cc(Br)c(OCCCN(C)C)c(Br)c2)cc1Br
Data returned: 23.7

Data request: Entry CCN(CC)CCNCC(O)Cc1ccc(OC)cc1 (stereo not drawn) please
Data returned: 105

Data request: Next entry: COc1ccc(-n2c(-c3ccc(NC(=O)CCCl)cc3)nnc2-c2cc(OC)c(OC)c(OC)c2)cc1
Data returned: 53.2

Data request: Also CC/C(=C(\CC)c1ccc(OCCN(CC)CC)cc1)c1ccc(OCCN(CC)CC)cc1 ?
Data returned: 5.07

Data request: What would you report for CC(C)(C)NC(C1=CC(C)(C)c2ccccc2C1=O)c1ccccc1 (stereo not drawn) ?
Data returned: -1.43

Data request: Quick one: Nc1nc(Cl)cc(NCCCCNc2cc(Cl)nc(N)n2)n1
Data returned: 114

Data request: Please give the result for Cc1ccc(NC(=O)CN2CCOCC2)cc1Cl too.
Data returned: 96

Data request: Another: Cc1ccc(Cn2cc(COc3ccc4c5ccnc(C)c5n(CCCc5ccccc5)c4c3)nn2)cc1
Data returned: 75.8

Data request: Note, next up: CCOC(=O)c1noc2c1CCc1cn(Cc3cc(OC)cc(OC)c3)cc1-2
Data returned: 117

Data request: Field entry: NN=C(c1ccc(Cl)cc1)c1ccc(Cl)cc1
Data returned: 106

Data request: Record: COc1ccc(-c2cc3ccc(N(C)C)cc3nc2N)c(F)c1
Data returned: 48.5

----------
System: SNB-75 CNS
Test: NCI-60 one-dose screen, 48 h (100 = growth as untreated, 0 = no growth, -100 = all killed)
Conditions: 10 µM unless noted
About 83,000 compounds went through this panel and 20% of them were active in at least one assay; those are over-represented in the sample as a whole.
observedProperty: growth (%)
The reply should be a number in %, with the unit left off.

Data request: Please provide the recorded growth for Nc1nc(=S)ss1 , tested on SNB-75 CNS.
Data returned: 89.3

Data request: Record: O=C(Nc1ccc(-n2ccc3c(NC(=O)c4ccccc4)ncnc32)cc1)c1cccc(C(F)(F)F)c1
Data returned: 63.9

Data request: Next up: O=C1OC(=O)C2C3CC(c4ccccc43)C12 (stereo not drawn)
Data returned: 89.4

Data request: What do we get for Cc1ccc(NC(=O)CN2CCOCC2)cc1Cl ?
Data returned: 97.4

Data request: Consider next the compound CCn1cc(C(=O)O)c(=O)c2cc(F)c(N3CCN(CC(=O)Nc4ccc(C(C)=O)cc4)CC3)cc21 in the same way.
Data returned: 87.3

Data request: Here is the next compound: COCCNC(C(=O)c1ccccc1)c1ccccc1 (stereo not drawn)
Data returned: 88.2

Data request: CCOC(=O)c1cnc2c(OC)ccc(OC)c2c1Cl , same question.
Data returned: 82.7

Data request: Would you mind doing COc1ccc(C2=NN(C(=O)COc3ccc(Cl)cc3)C(O)(c3cc(F)c(Cl)cc3Cl)C2)cc1 (stereo not drawn) as well?
Data returned: 88.2

Data request: Next: CCOc1ccccc1C(=O)N1CCN(c2cc(Cl)cc(Cl)c2)CC1
Data returned: 34.3

Data request: Let us now turn to C=C1C(=O)O[C@H]2[C@H]1CC/C(COC(=O)c1ccc(C#N)cc1)=C\CC[C@@]1(C)O[C@@H]21
Data returned: 77.3

Data request: Now consider CCOc1cccc(Nc2nc(N)nc3[nH]c4ccc(O)cc4c23)c1 and answer again.
Data returned: 46.1

Data request: How about this compound: O=[N+]([O-])c1ccc(NS(=O)(=O)c2cc(Cl)ccc2Cl)c2ccccc12
Data returned: 60.6

Data request: What about this compound? COc1ccc(C(=O)NC(=O)Nc2ccc3c(c2)NC(=O)/C3=C\c2[nH]c(C)c(CCC(=O)O)c2C)c(F)c1
Data returned: 44.2

Data request: Repeat for the following compound: C=CCn1c(SCC(=O)Nc2ccc(/C(C)=N\O)cc2)nnc1-c1cc(-c2ccc(OC)cc2)nc2ccccc12
Data returned: 57.4

Data request: For N#Cc1c2c(c(N)[nH]c1=O)C(=O)NC2(O)c1ccccc1 (stereo not drawn) then?
Data returned: 106

Data request: Let us now turn to Oc1ccc(Cl)cc1Sc1cc(Cl)ccc1O
Data returned: 63.4

Data request: Field entry: CC(=S)Nc1ccccc1
Data returned: 87.3

Data request: Lookup CN(C)c1ccc(/C=c2\s/c(=C\C(=O)C(C)(C)C)[nH]c2=O)cc1
Data returned: 94.3

Data request: Note, next up: C=C1C(=O)O[C@H]2[C@H]1CC/C(COC(=O)c1ccc3ccccc3c1)=C\CC[C@@]1(C)O[C@@H]21
Data returned: 25.1

Data request: Same for O=c1nc(N2CCOCC2)oc2c(-c3cccc4ccccc34)cccc12
Data returned: 46.9

Data request: Consider next the compound Cc1cc2c(cc1C)N(C(=O)CCl)CCN2C(=O)CCl in the same way.
Data returned: -94

Data request: Same for Nc1ncnc2c1c(-c1ccc(Oc3ccccc3)cc1)nn2C[C@H]1SSC[C@H]1O
Data returned: 3.26

Data request: And what about the compound CS(=O)(=O)Nc1cccc(-c2ccc3ncnc(Nc4ccc(F)c(Cl)c4)c3c2)c1 ?
Data returned: 32.8

Data request: Cool, now C=CC(=O)NC(=O)Nc1ccccc1Cl
Data returned: 83.8

Data request: Consider next the compound C/C(=N/O)c1ccc(NC(=O)Cn2nc(-c3ccc(Cl)cc3)nc2N)cc1 in the same way.
Data returned: 87.3

Data request: // same read-out, input: COc1ccc(Cl)cc1NC(=O)c1cc2c([nH]1)-c1nc(NC(=O)C(C)(C)C)sc1CC2
Data returned: 50.5

Data request: Entry to check: Nc1nc(Cl)cc(NCc2ccc(CNc3cc(Cl)nc(N)n3)cc2)n1
Data returned: 78.3

Data request: Then this compound: O=C1OC(c2ccc(-c3ccccc3)cc2)=C/C1=C/C=C/c1ccccc1
Data returned: 92.4
